So I've got a bunch of variants here, and I need their polymerase ribozyme fitness (log ratio) values.
B1: TPR 5TU (parent)
chain: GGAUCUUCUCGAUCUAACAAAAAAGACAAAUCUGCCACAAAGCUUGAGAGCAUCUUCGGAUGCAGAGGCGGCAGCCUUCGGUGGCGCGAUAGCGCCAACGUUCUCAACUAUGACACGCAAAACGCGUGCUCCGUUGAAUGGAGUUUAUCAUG

variants of: B1; assay: polymerase ribozyme fitness, log enrichment relative to wild type (log ratio); higher = more active; in vitro selection for triplet polymerase activity
This sample holds only a part of the variants without activity.
Answers are plain numbers.

[[record]]
variant_code = "C95A U101C"
experimental_value = 0.62

[[record]]
variant_code = "A26C G92C"
experimental_value = -2.71

[[record]]
variant_code = "C96U U109C"
experimental_value = -3.67

[[record]]
variant_code = "G84A C103G C149U"
experimental_value = -3.35

[[record]]
variant_code = "A3G G46C C54A U146C"
experimental_value = -3.68

[[record]]
variant_code = "C87U G92C"
experimental_value = -0.38

[[record]]
variant_code = "C85G C95A"
experimental_value = -1.68

[[record]]
variant_code = "G86A G143U"
experimental_value = -3.07


# map each variant to its polymerase ribozyme fitness (log ratio)
1. A41C C57A C96U U134C
2. C85U C125G G136A
3. U56A A97G

stdout:
-0.224
-0.203
-0.89

Kindly give each listed record's polymerase ribozyme fitness (log ratio).
1. A49C C57U U101G
2. C54U U130G

stdout:
[-2.69, -3.73]

Record polymerase ribozyme fitness (log ratio) for all entries; do not skip any.
1. U6G G50C
2. G48A G83U U134C
3. G71U G86U C125A A138G
4. A40C U144A
5. A12G C14U
6. U61G C85A
7. G94C A97U

stdout:
1: -3.07; 2: -1.42; 3: -3.99; 4: -0.312; 5: -0.925; 6: -2.29; 7: -2.45

# map each variant to its polymerase ribozyme fitness (log ratio)
1. U102G C105U C125U A150C
2. A37U A52G C76U C95A
3. A47G C99U

stdout:
-4.12
-2.41
0.0144
